Where do the numbers come from? From patent US20250051338A1.

Measured DC50, listed per entry.
# TESTED_ON: TYK2 (Homo sapiens)
# ASSAY_SUMMARY: TYK2 degradation MSD assay in EBV-B cells
# Assay type: cell-based
# Set-up: endogenous in cells; host or cells: EBV-B cells
# MEASUREMENT_PARAMETERS: 4 to 24 hours incubation, read-out: TYK2 MSD DC50 rating in EBV-B

COMPOUND: CNc1cc(Nc2cccn(-c3ccc(C(=O)N(C)CCCOC4CCN(c5ccc6c(c5)n(C)c(=O)n6C5CCC(=O)NC5=O)CC4)cn3)c2=O)nn2c(C(=O)N[C@@H]3C[C@@H]3F)cnc12 (some centres unmarked) [Example K438]
TESTED_ON: TYK2 (Homo sapiens)
RESULT: > 100 nM
//
COMPOUND: CNc1cc(Nc2cccc(N3CCC(CN4CCN(c5cccc6c(C7CCC(=O)NC7=O)cncc56)CC4)CC3)c2)nn2c(C(=O)N[C@@H]3C[C@@H]3F)cnc12 (some centres unmarked) [Example K503]
TESTED_ON: TYK2 (Homo sapiens)
RESULT: > 100 nM
//
COMPOUND: Cn1c(=O)n(C2CCC(=O)NC2=O)c2ccc(-c3ccc(N4CC5(CN(Cc6ccc(-c7cccc(Nc8ccc9ncc(C(=O)NC%10CC%10)n9n8)c7)nc6)C5)C4)cc3)cc21 (centres unmarked) [Example K515]
TESTED_ON: TYK2 (Homo sapiens)
RESULT: 1 to 10 nM
//
COMPOUND: CNC(=O)c1cnc(Nc2ccc(CN3CCC(CN(C)c4ccc5c(c4)n(C)c(=O)n5C4CCC(=O)NC4=O)CC3)cn2)cc1Nc1cccc(-c2ncc(F)cn2)c1OC (centres unmarked) [Example K147]
TESTED_ON: TYK2 (Homo sapiens)
RESULT: < 1 nM
//
COMPOUND: CNc1cc(-c2cnn(C3CCC(CN4CCC(CN(C)c5ccc6c(c5)n(C)c(=O)n6C5CCC(=O)NC5=O)CC4)CC3)c2)nn2c(C(=O)NC3C[C@@H]3F)cnc12 (some centres unmarked) [Example K364]
TESTED_ON: TYK2 (Homo sapiens)
RESULT: > 100 nM

Item CNc1cc(Nc2cccc(-c3ccc(CN4CCN(C5CCC(c6ccc(-c7ccc8c(c7)n(C)c(=O)n8C7CCC(=O)NC7=O)cc6)CC5)CC4)cn3)c2OC)nn2c(C(=O)N[C@@H]3C[C@@H]3F)cnc12 (some centres unmarked) [Example K567] ; assay system TYK2 (Homo sapiens); DC50 reported as > 100 nM

Form field, DC50 with TYK2 (Homo sapiens), item CNc1cc(Nc2cccc(-c3ccc(CN4CCC(N5CCN(c6ccc7c(c6)n(C)c(=O)n7C6CCC(=O)NC6=O)CC5)C(F)(F)C4)cn3)c2OC)nn2c(C(=O)NC3CC3F)cnc12 (centres unmarked) [Example K660] : > 100 nM

---

# TESTED_ON: TYK2 (Homo sapiens, UniProt P29597)
# Sequence (P29597 whole entry): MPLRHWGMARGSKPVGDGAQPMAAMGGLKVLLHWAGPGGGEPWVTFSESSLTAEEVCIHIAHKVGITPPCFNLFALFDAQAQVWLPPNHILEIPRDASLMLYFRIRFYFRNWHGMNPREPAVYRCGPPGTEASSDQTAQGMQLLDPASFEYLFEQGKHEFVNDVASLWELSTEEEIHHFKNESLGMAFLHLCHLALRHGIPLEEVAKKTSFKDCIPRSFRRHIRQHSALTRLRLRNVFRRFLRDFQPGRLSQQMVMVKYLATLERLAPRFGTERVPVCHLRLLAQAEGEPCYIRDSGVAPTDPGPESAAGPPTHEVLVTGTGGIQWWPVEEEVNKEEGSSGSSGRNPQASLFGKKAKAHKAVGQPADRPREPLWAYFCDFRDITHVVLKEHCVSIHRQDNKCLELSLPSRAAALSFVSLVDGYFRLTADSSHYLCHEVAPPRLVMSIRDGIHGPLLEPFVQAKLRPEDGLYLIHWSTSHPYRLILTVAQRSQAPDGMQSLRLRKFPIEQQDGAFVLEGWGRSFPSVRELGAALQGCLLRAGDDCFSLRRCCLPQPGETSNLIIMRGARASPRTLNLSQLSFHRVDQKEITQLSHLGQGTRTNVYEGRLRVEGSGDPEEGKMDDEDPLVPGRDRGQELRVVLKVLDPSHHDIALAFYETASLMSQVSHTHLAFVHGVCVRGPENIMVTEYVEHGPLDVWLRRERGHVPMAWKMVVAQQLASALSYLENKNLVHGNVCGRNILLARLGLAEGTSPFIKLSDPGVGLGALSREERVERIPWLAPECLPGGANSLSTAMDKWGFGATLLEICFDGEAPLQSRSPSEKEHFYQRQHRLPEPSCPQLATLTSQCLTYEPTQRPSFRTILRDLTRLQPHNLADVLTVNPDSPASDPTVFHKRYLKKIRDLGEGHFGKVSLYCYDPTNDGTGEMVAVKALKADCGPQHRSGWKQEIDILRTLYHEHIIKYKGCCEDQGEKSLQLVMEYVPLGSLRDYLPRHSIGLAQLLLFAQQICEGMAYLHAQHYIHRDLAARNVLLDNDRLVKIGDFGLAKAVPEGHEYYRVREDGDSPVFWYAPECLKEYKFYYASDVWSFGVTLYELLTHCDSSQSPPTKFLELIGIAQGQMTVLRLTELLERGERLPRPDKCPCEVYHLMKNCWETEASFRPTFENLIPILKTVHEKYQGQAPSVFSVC
# ASSAY_SUMMARY: TYK2 degradation MSD assay in OCI-LY10 cells
# Assay type: cell-based
# Design: endogenous in cells; host or cells: EBV-B cells
# MEASUREMENT_PARAMETERS: 4 to 24 hours incubation, read-out: TYK2 MSD DC50 rating in OCI-LY10
ENDPOINT: DC50

Take a look at these entries with their results.
COMPOUND: CNc1cc(Nc2cccc(CN3CC4(CCN(c5ccc(-c6ccc7c(c6)n(C)c(=O)n7C6CCC(=O)NC6=O)cn5)CC4)C3)c2)nn2c(C(=O)NC3CC3)cnc12 (stereo not shown)
TESTED_ON: TYK2 (Homo sapiens, UniProt P29597)
DC50: 1 to 10 nM

COMPOUND: CNC(=O)c1cnc(Nc2ccc(CN3CCN(CC4CCN(c5ccc(-c6ccc7c(c6)n(C)c(=O)n7C6CCC(=O)NC6=O)cc5)CC4)CC3)cn2)cc1Nc1cccc(-c2ncc(F)cn2)c1OC (stereo not shown)
TESTED_ON: TYK2 (Homo sapiens, UniProt P29597)
DC50: > 100 nM

COMPOUND: CNc1cc(Nc2cccc(-c3ccc(CN4CCN(c5cccc6c(N7CCC(=O)NC7=O)cncc56)CC4)cn3)c2)nn2c(C(=O)N[C@@H]3C[C@@H]3F)cnc12
TESTED_ON: TYK2 (Homo sapiens, UniProt P29597)
DC50: > 100 nM

COMPOUND: Cn1c(=O)n(C2CCC(=O)NC2=O)c2cccc(CCOCCOCCNc3cc(Nc4cccn(-c5ccccn5)c4=O)nn4c(C(=O)N[C@@H]5C[C@@H]5F)cnc34)c21 (stereo partly shown)
TESTED_ON: TYK2 (Homo sapiens, UniProt P29597)
DC50: > 100 nM

COMPOUND: CNc1cc(Nc2cccn(-c3ccc(C(=O)N4CCN(CC5CCN(c6ccc(-c7ccc8c(c7)n(C)c(=O)n8C7CCC(=O)NC7=O)cc6)CC5)CC4)cn3)c2=O)nn2c(C(=O)N[C@@H]3C[C@@H]3F)cnc12 (stereo partly shown)
TESTED_ON: TYK2 (Homo sapiens, UniProt P29597)
DC50: > 100 nM

COMPOUND: CNc1cc(Nc2cccn(-c3cccc(C(=O)NCCCCCCCCc4cccc5c4n(C)c(=O)n5C4CCC(=O)NC4=O)c3)c2=O)nn2c(C(=O)N[C@@H]3C[C@@H]3F)cnc12 (stereo partly shown)
TESTED_ON: TYK2 (Homo sapiens, UniProt P29597)
DC50: > 100 nM

COMPOUND: CNc1cc(Nc2cccc(CN3CCC(CN4CCN(c5ccc6c(c5)n(C)c(=O)n6C5CCC(=O)NC5=O)CC4)CC3)c2)nn2c(C(=O)N[C@@H]3C[C@@H]3F)cnc12 (stereo partly shown)
TESTED_ON: TYK2 (Homo sapiens, UniProt P29597)
DC50: < 1 nM

COMPOUND: CNc1cc(N2CCc3c(-c4cc(N5CCN(c6cccc7c6n(C)c(=O)n7C6CCC(=O)NC6=O)CC5)ccn4)cccc32)nn2c(C(=O)N[C@@H]3C[C@@H]3F)cnc12 (stereo partly shown)
TESTED_ON: TYK2 (Homo sapiens, UniProt P29597)
DC50: > 100 nM

COMPOUND: CNc1cc(Nc2cccc(N3CCC(CN4CCC(c5ccc(-c6ccc7c(c6)n(C)c(=O)n7C6CCC(=O)NC6=O)cc5)CC4)CC3)c2OC)nn2c(C(=O)N[C@@H]3C[C@@H]3F)cnc12 (stereo partly shown)
TESTED_ON: TYK2 (Homo sapiens, UniProt P29597)
DC50: < 1 nM

Lookup result for CNc1cc(Nc2cccc(-c3ccc(CN4CCN(c5cccc6c5n(C)c(=O)n6C5CCC(=O)NC5=O)CC4)cn3)c2)nn2c(C(=O)N[C@@H]3C[C@@H]3F)cnc12 (stereo partly shown) ; measured DC50: < 1 nM

---

# TESTED_ON: UniProtKB P29597
# ASSAY_SUMMARY: TYK2 degradation MSD assay in human PBMC cells
# Format: cell-based
# Design: endogenous in cells; host or cells: human PBMC
# MEASUREMENT_PARAMETERS: 4 to 24 hours incubation, read-out: TYK2 MSD DC50 rating in human PBMC
ENDPOINT: DC50

Would you please look over these solved cases?
MOLECULE: CNc1cc(Nc2cccc(C#CCN3CCN(c4ccc(-c5ccc6c(c5)n(C)c(=O)n6C5CCC(=O)NC5=O)cc4)CC3)c2OC)nn2c(C(=O)N[C@@H]3C[C@@H]3F)cnc12 (mixture of isomers) [Example K543]
DC50: > 0.1 µM
--
MOLECULE: CNc1cc(Nc2cccn(-c3cc(C(=O)NCCOCCOCCOCCOCCOCCOCCc4cccc5c4n(C)c(=O)n5C4CCC(=O)NC4=O)ccn3)c2=O)nn2c(C(=O)N[C@@H]3C[C@@H]3F)cnc12 (stereo partly shown) [Example K244]
DC50: > 0.1 µM
--
MOLECULE: CNC(=O)c1cnc(Nc2ccc(CN3CC4(CCN(c5cccc6c5n(C)c(=O)n6C5CCC(=O)NC5=O)CC4)C3)cn2)cc1Nc1cccc(-c2ncc(F)cn2)c1OC (stereo not shown) [Example K150]
DC50: < 0.001 µM
--
MOLECULE: CNc1cc(Nc2cccn(-c3ccc(C(=O)N4CCN(CC5CCN(c6ccc(-c7ccc8c(c7)n(C)c(=O)n8C7CCC(=O)NC7=O)cc6)CC5)CC4)cn3)c2=O)nn2c(C(=O)N[C@@H]3C[C@@H]3F)cnc12 (stereo partly shown) [Example K374]
DC50: > 0.1 µM
--
MOLECULE: CNC(=O)c1cnc(Nc2ccc(CN(C)CC3CCN(c4ccc5c(c4)n(C)c(=O)n5C4CCC(=O)NC4=O)CC3)cn2)cc1Nc1cccc(-c2ncc(F)cn2)c1OC (stereo not shown) [Example K135]
DC50: < 0.001 µM
--
MOLECULE: CNc1cc(Nc2cccc(N3CCC(CN4CCN(c5ccc(-c6ccc7c(c6)n(C)c(=O)n7C6CCC(=O)NC6=O)cc5)CC4)CC3)c2)nn2c(C(=O)N[C@@H]3C[C@@H]3F)cnc12 (stereo partly shown) [Example K518]
DC50: > 0.1 µM
--
MOLECULE: CNC(=O)c1cnc(Nc2ccc(CN(C)C3CCCN(c4cccc5c4n(C)c(=O)n5C4CCC(=O)NC4=O)C3)cn2)cc1Nc1cccc(-c2ncc(F)cn2)c1OC (stereo not shown) [Example K162]
DC50: > 0.1 µM
--
MOLECULE: CNc1cc(Nc2cccc(-c3ccc(CN4CC5(CCN(c6ccc(C7CCC(=O)NC7=O)cc6)CC5)C4)cn3)c2)nn2c(C(=O)N[C@@H]3C[C@@H]3F)cnc12 (stereo partly shown) [Example K500]
DC50: > 0.1 µM

Value of measured DC50 for the entry CNc1cc(Nc2cccn(-c3ccc(C(=O)N4CCC(N5CCC(N6CCN(c7ccc8c(c7)n(C)c(=O)n8C7CCC(=O)NC7=O)CC6)CC5)CC4)cn3)c2=O)nn2c(C(=O)N[C@@H]3C[C@@H]3F)cnc12 (stereo partly shown) [Example K453] : > 0.1 µM

Value of measured DC50 for the entry CNc1cc(Nc2cccn(-c3cc(C(=O)NCCCCCCCCc4cccc5c4n(C)c(=O)n5C4CCC(=O)NC4=O)ccn3)c2=O)nn2c(C(=O)N[C@@H]3C[C@@H]3F)cnc12 (stereo partly shown) [Example K232] : 0.001 to 0.01 µM
